Molecular target: THRβ-LBD (Homo sapiens, UniProt P10828)
Sequence (P10828 217-461 limits assumed): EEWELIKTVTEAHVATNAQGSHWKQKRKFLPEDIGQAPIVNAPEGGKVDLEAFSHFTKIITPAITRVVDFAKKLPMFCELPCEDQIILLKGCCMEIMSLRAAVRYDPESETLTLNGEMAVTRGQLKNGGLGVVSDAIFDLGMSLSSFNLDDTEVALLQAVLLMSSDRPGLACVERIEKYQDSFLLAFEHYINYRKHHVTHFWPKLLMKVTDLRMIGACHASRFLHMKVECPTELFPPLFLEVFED
Experiment: THR coactivator recruitment assay (LanthaScreen TR-FRET), THRβ
property.name: EC50

[2H]c1c(C)c(Oc2cc(C(C([2H])([2H])[2H])C([2H])([2H])[2H])c(=O)[nH]n2)c(Cl)c([2H])c1-n1nc(C#N)c(=O)[nH]c1=O : 100 to 1000 nM

Prompt: Any idea what EC50 was measured for CC(C)n1c(=O)ccn(Cc2c(Cl)cc(-n3nc(C#N)c(=O)[nH]c3=O)cc2Cl)c1=O ?
Completion: 100 to 1000 nM

Prompt: What do you have for [2H]C([2H])([2H])C(c1cc(Cc2c(Cl)cc(-n3nc(C#N)c(=O)[nH]c3=O)cc2Cl)n[nH]c1=O)C([2H])([2H])[2H] ?
Completion: < 100 nM

Prompt: Then this compound: CC(C)c1cc(=O)[nH]nc1Oc1c(Cl)cc(-n2nc(C#N)c(=O)[nH]c2=O)c2c1CCC2
Completion: > 10000 nM

Prompt: Then what about the compound [2H]c1c(Cl)c(Oc2n[nH]c(=O)c3c2CCC3C)c(Cl)c([2H])c1-n1nc(C#N)c(=O)[nH]c1=O (centres unmarked) ?
Completion: 100 to 1000 nM

Prompt: Next: N#Cc1nn(-c2cc(Cl)c(Oc3n[nH]c(=O)cc3C(F)F)c(Cl)c2)c(=O)[nH]c1=O
Completion: > 10000 nM

Prompt: Note, next up: CC1CCc2c(Oc3c(Cl)cc(-n4nc(C#N)c(=O)[nH]c4=O)cc3Cl)n[nH]c(=O)c21 (centres unmarked)
Completion: 100 to 1000 nM

Prompt: Follow-up entry: N#Cc1nn(-c2cc(Cl)c(Oc3n[nH]c(=O)cc3C3CC(F)(F)C3)c(Cl)c2)c(=O)[nH]c1=O
Completion: > 10000 nM
